target: CYP2C19 (Homo sapiens, UniProt P33261)
Sequence (P33261 whole entry): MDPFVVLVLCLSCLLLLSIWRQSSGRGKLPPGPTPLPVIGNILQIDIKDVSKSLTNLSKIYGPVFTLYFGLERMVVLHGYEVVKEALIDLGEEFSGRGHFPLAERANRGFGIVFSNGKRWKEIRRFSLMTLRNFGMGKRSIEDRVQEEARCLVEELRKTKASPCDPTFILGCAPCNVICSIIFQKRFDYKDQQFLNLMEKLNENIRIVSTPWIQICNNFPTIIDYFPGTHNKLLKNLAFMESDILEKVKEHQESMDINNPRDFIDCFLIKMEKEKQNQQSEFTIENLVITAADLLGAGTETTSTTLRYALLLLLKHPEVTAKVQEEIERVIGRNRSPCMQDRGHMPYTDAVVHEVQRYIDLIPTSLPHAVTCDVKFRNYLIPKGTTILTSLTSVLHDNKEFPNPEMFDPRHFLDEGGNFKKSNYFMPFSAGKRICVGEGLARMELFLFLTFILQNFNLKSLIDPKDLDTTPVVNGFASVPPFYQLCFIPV
METRIC: IC50 (µM)
Form entry: value (µM) — number only.

Inquiry: Kindly state the measured IC50 obtained for O=c1cc(-c2ccc(O)c(-c3c(O)cc(O)c4c(=O)cc(-c5ccc(O)cc5)oc34)c2)oc2cc(O)cc(O)c12 with CYP2C19 (Homo sapiens, UniProt P33261).
Reply text: 3.4

###

target: CYP2C8 (Homo sapiens); test: Inhibition of CYP2C8-catalyzed amodiaquine N-deethylation in pooled human liver microsomes; type: in vitro ADME; set-up: incubation mixtures containing pooled human liver microsomes (HLMs, XTreme 200, XenoTech); tissue XenoTech XTreme 200; host or cells: pooled human liver microsomes; conditions: human, pooled human liver microsomes, probe amodiaquine; inhibitor 0.5 μM; pooled HLMs 0.25 mg/mL
Sequence (P10632 whole entry): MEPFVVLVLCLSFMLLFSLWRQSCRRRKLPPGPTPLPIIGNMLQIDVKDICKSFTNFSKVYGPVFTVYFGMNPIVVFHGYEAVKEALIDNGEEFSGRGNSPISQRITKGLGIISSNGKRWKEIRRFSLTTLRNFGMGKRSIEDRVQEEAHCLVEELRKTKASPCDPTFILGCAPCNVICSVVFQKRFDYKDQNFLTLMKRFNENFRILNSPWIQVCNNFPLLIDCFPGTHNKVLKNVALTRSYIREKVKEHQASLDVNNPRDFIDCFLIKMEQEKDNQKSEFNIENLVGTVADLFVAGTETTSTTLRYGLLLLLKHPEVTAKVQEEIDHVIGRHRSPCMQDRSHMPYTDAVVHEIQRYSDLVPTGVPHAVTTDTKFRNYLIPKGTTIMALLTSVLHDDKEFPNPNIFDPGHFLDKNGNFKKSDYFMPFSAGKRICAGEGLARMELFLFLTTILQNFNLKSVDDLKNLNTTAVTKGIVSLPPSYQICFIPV
METRIC: inhibition at 10 min, 0.5 µM (%)
Kindly answer with a numeric value in %, unit omitted.

O=C1CC(c2cc(-c3c(O)ccc4c(=O)cc(-c5ccc(O)cc5)oc34)c(O)cc2O)Oc2cc(O)cc(O)c21 (centres unmarked): 92.8

Now look at this one.
Inquiry: What measured inhibition at 10 min, 0.5 µM goes with CC(C)(O)c1ccccc1CC[C@@H](SCC1(CC(=O)O)CC1)c1cccc(/C=C/c2ccc3ccc(Cl)cc3n2)c1 [montelukast, reference compound] ?
Reply text: 52.7
